Attribution: patent US20110300156A1

# TGT: human tissue factor (TF), membrane-bound on cells (human, UniProt P13726 33-295)
# MEASUREMENT_DESCRIPTION: cell-based or functional assay
So I've got a bunch of binders here, and I need their IC50, inhibition of FVIIa induced ERK phosphorylation (A431) values.

Worked cases, IC50, inhibition of FVIIa induced ERK phosphorylation (A431) given:
>  <BINDER>
anti-TF HuMab 003 (antibody, V domains shown, Human monoclonal antibody from HuMab mice; also called HuMab-TF-003) VH: QVQLVQSGAEVKKPGSSVKVSCKAPRGTFSYYTISWVRQAPGQGLEWMGRIIPILGVANYAQKFQGRVTITADKSTSTAYMELSSLRSEDTAVYYCAREGDRRYFDYWGQGTLVTVSS VL: AIQLTQSPSSLSASVGDRVTITCRASQDISSALAWYQQKPGKAPKLLIYDASILESGVPSRFSGSGSGTDFTLTISSLQPEDFATYYCQQFNSYPLTFGGGTKVEIK

>  <VALUE_OBSERVED>
7.99 nM

$$$$
>  <BINDER>
anti-TF HuMab 013 (antibody, V domains shown, Human monoclonal antibody from HuMab mice; also called HuMab-TF-13) VH: EVQLVQSGAEVKKPGESLKISCKGSGYSFTSYWIGWVRQMPGKGLEWMGIIYPGDSDTRYSPSFQGQVTISADKSISTAYLQWSSLKASDTAMYYCARIHRGAGYSSSWPGAFDIWGQGTMVTVSS VL: DIQMTQSPSSLSASVGDRVTITCRASQGISRWLAWYQQKPEKAPKSLIYAASSLQSGVPSRFSGSGSGTDFTLTISSLQPEDFATYYCQQYDSDPITFGQGTRLEIK

>  <VALUE_OBSERVED>
9.11 nM

$$$$

Let us examine a further case.
Q: Consider the binder anti-TF HuMab 109 (antibody, V domains shown, Human monoclonal antibody from HuMab mice) VH: QVQLVESGGGVVQPGRSLRLSCPASGFTFSIYAMHWVRQAPGKGLEWVAVVSNDGYNKYYADSVKGRFTISRDNSKDTLYLQMNSLRAEDTAVYYCARDGQLGRGYFDYWGQGTLVTVSS VL: EIVLTQSPATLSLSPGERAILSCRASQSVSSYLAWYQQKPGQAPRLLIYDASNRATGIPARFSGSGSGTDFTLTISSLEPEDFAVYYCQQRSNWPLTFGGGTKVEIK and give its measured IC50, inhibition of FVIIa induced ERK phosphorylation (A431).
Result: 2.42 nM
